All values here come from ChEMBL document CHEMBL3885861.

Measured Hb of individual entries
Organism: Rattus norvegicus
experiment description: Open TG-GATES - Regimen: Daily Repeat
Format: toxicity, organism-based, Sprague-Dawley
Set-up: regimen Daily Repeat, gender Male, age 6 weeks
settings: in vivo, po, 100 mg/kg, […], tissue Blood, route gavage, dose level Low, time 14 day
The figure you give is taken to be in g/dL; do not add the unit.

Sample records with Hb:
| molecule | Hb / g/dL |
| --- | --- |
| O=C(O)c1ccccc1Nc1ccccc1 | 14.4 |
| CC(S)C(=O)NCC(=O)O (centres undefined) | 14.3 |

Exercise: // lookup Hb for CC(=O)[C@@]1(O)CC[C@H]2[C@@H]3C=C(Cl)C4=CC(=O)CC[C@]4(C)[C@H]3CC[C@@]21C
Key: 14.8

Exercise: // lookup Hb for CCCCNC(=O)NS(=O)(=O)c1ccc(C)cc1 [TOLBUTAMIDE]
Key: 14.2

###

Species: Rattus norvegicus
experiment description: Open TG-GATES - Regimen: Daily Repeat
Type: toxicity, organism-based, Sprague-Dawley
Parameters: regimen Daily Repeat, gender Male, age 6 weeks
settings: in vivo, po, 1000 mg/kg, […], tissue Blood, route gavage, dose level High, time 14 day
Measured RBC of individual entries
The figure you give is taken to be in x10_4/ul; do not add the unit.

Sample records with RBC:
| molecule | RBC [x10_4/ul] |
| --- | --- |
| CC(=O)[C@@]1(O)CC[C@H]2[C@@H]3C=C(Cl)C4=CC(=O)CC[C@]4(C)[C@H]3CC[C@@]21C [CHLORMADINONE] | 774.6 |
| CC(S)C(=O)NCC(=O)O (centres undefined) [TIOPRONIN] | 666.8 |
| CCCCNC(=O)NS(=O)(=O)c1ccc(C)cc1 [TOLBUTAMIDE] | 740 |

Exercise: // lookup RBC for O=C(O)c1ccccc1Nc1ccccc1 [FENAMIC ACID]
Key: 674

###

Species on record: Rattus norvegicus
experiment description: Open TG-GATES - Regimen: Daily Repeat
Assay type: toxicity, organism-based, Sprague-Dawley
Set-up: regimen Daily Repeat, gender Male, age 6 weeks
settings: in vivo, po, 0 mg/kg, 72 h, tissue Kidney, route gavage, dose level Control, time 3 day
observable: KIDNEY_L (g)
The figure you give is taken to be in g; do not add the unit.

Sample records with KIDNEY_L:
| compound | KIDNEY_L [g] |
| --- | --- |
| CCCCC1C(=O)N(c2ccccc2)N(c2ccccc2)C1=O | 1.1 |
| CC(S)C(=O)NCC(=O)O (stereo not given) | 1 |
| CN(C/C=C/C#CC(C)(C)C)Cc1cccc2ccccc12 | 1.1 |
| O=C(O)c1ccccc1Nc1ccccc1 | 1 |

Exercise: // lookup KIDNEY_L for CCO
Key: 1

###

Species: Rattus norvegicus
experiment description: Open TG-GATES - Regimen: Daily Repeat
Type: toxicity, organism-based, Sprague-Dawley
Parameters: regimen Daily Repeat, gender Male, age 6 weeks
settings: in vivo, po, 0 mg/kg, […], tissue Plasma, route gavage, dose level Control, time 14 day
observable: TBIL

Exercise: // lookup TBIL for O=C(O)c1ccccc1Nc1ccccc1
Key: 0.032 mg/dL

Exercise: // lookup TBIL for CCN(CC)C(=S)SSC(=S)N(CC)CC
Key: 0 mg/dL

Exercise: // lookup TBIL for CCCCC1C(=O)N(c2ccccc2)N(c2ccccc2)C1=O
Key: 0.3 mg/dL

###

Species: Rattus norvegicus
experiment description: Open TG-GATES - Regimen: Daily Repeat
Type: toxicity, organism-based, Sprague-Dawley
Parameters: regimen Daily Repeat, gender Male, age 6 weeks
settings: in vivo, po, 0 mg/kg, […], tissue Plasma, route gavage, dose level Control, time 28 day
Measured PL of individual entries
The figure you give is taken to be in mg/dL; do not add the unit.

Sample records with PL:
| compound | PL / mg/dL |
| --- | --- |
| CN(CCOc1ccc(CC2SC(=O)NC2=O)cc1)c1ccccn1.O=C(O)/C=C\C(=O)O (configuration not stated) [ROSIGLITAZONE MALEATE] | 144.8 |
| Nc1ccc(Cc2ccc(N)cc2)cc1 | 141.2 |

Exercise: // lookup PL for CCO [ALCOHOL]
Key: 148

Exercise: // lookup PL for CCCCNC(=O)NS(=O)(=O)c1ccc(C)cc1 [TOLBUTAMIDE]
Key: 162.4

Exercise: // lookup PL for COc1ccc([C@@H]2Sc3ccccc3N(CCN(C)C)C(=O)[C@@H]2OC(C)=O)cc1 [DILTIAZEM]
Key: 160.2

Exercise: // lookup PL for O=C(O)c1ccccc1Nc1ccccc1 [FENAMIC ACID]
Key: 133.8

Exercise: // lookup PL for CCN(CC)C(=S)SSC(=S)N(CC)CC
Key: 145

Exercise: // lookup PL for CC(S)C(=O)NCC(=O)O (configuration not stated) [TIOPRONIN]
Key: 151.4

###

Organism: Rattus norvegicus
experiment description: Open TG-GATES - Regimen: Daily Repeat
Type: toxicity, organism-based, Sprague-Dawley
Parameters: regimen Daily Repeat, gender Male, age 6 weeks
settings: in vivo, po, 300 mg/kg, […], tissue Blood, route gavage, dose level Middle, time 28 day
observable: Ht
Note to self: number, then unit, no commentary.

| molecule | val |
| --- | --- |
| CC(=O)[C@@]1(O)CC[C@H]2[C@@H]3C=C(Cl)C4=CC(=O)CC[C@]4(C)[C@H]3CC[C@@]21C [CHLORMADINONE] | 46.4% |
| CCCCNC(=O)NS(=O)(=O)c1ccc(C)cc1 [TOLBUTAMIDE] | 45.4% |
| CC(S)C(=O)NCC(=O)O (centres undefined) [TIOPRONIN] | 43.3% |

# next molecule below
Exercise: // lookup Ht for O=C(O)c1ccccc1Nc1ccccc1 [FENAMIC ACID]
Key: 42.7%

###

Species on record: Rattus norvegicus
experiment description: Open TG-GATES - Regimen: Daily Repeat
Type: toxicity, organism-based, Sprague-Dawley
Design: regimen Daily Repeat, gender Male, age 6 weeks
settings: in vivo, po, 1000 mg/kg, […], tissue Blood, route gavage, dose level High, time 14 day
observable: Fbg (mg/dL)
The figure you give is taken to be in mg/dL; do not add the unit.

| compound | Fbg / mg/dL |
| --- | --- |
| CCCCNC(=O)NS(=O)(=O)c1ccc(C)cc1 [TOLBUTAMIDE] | 320 |
| CC(S)C(=O)NCC(=O)O (centres undefined) | 266.2 |
| CC(=O)[C@@]1(O)CC[C@H]2[C@@H]3C=C(Cl)C4=CC(=O)CC[C@]4(C)[C@H]3CC[C@@]21C | 322 |

Exercise: // lookup Fbg for O=C(O)c1ccccc1Nc1ccccc1
Key: 473.3

###

Organism: Rattus norvegicus
experiment description: Open TG-GATES - Regimen: Daily Repeat
Type: toxicity, organism-based, Sprague-Dawley
Set-up: regimen Daily Repeat, gender Male, age 6 weeks
settings: in vivo, po, 0 mg/kg, 72 h, tissue Blood, route gavage, dose level Control, time 3 day
observable: PT (s)
The figure you give is taken to be in s; do not add the unit.

Sample records with PT:
| molecule | PT [s] |
| --- | --- |
| CCO | 11 |
| CC(=O)[C@@]1(O)CC[C@H]2[C@@H]3C=C(Cl)C4=CC(=O)CC[C@]4(C)[C@H]3CC[C@@]21C | 15.6 |
| Nc1ccc(Cc2ccc(N)cc2)cc1 | 11.7 |
| CC(S)C(=O)NCC(=O)O (configuration not stated) | 15.7 |
| CN(CCOc1ccc(CC2SC(=O)NC2=O)cc1)c1ccccn1.O=C(O)/C=C\C(=O)O (configuration not stated) [ROSIGLITAZONE MALEATE] | 11.5 |
| O=c1ccc2ccccc2o1 | 11.8 |
| NS(=O)(=O)c1cc(C(=O)O)c(NCc2ccco2)cc1Cl [FUROSEMIDE] | 14.8 |
| COc1ccc([C@@H]2Sc3ccccc3N(CCN(C)C)C(=O)[C@@H]2OC(C)=O)cc1 | 14.3 |

# next molecule below
Exercise: // lookup PT for CN(C/C=C/C#CC(C)(C)C)Cc1cccc2ccccc12
Key: 11.8

###

Organism: Rattus norvegicus
experiment description: Open TG-GATES - Regimen: Daily Repeat
Type: toxicity, organism-based, Sprague-Dawley
Design: regimen Daily Repeat, gender Male, age 6 weeks
settings: in vivo, po, 0 mg/kg, […], tissue Blood, route gavage, dose level Control, time 7 day
observable: Lym (%)
The figure you give is taken to be in %; do not add the unit.

Sample records with Lym:
| compound | observable | unit abbrev | val |
| --- | --- | --- | --- |
| CC(S)C(=O)NCC(=O)O (stereo not given) | Lym | % | 83 |
| O=c1ccc2ccccc2o1 | Lym | % | 83.4 |
| CC(=O)[C@@]1(O)CC[C@H]2[C@@H]3C=C(Cl)C4=CC(=O)CC[C@]4(C)[C@H]3CC[C@@]21C | Lym | % | 80.8 |
| Nc1ccc(Cc2ccc(N)cc2)cc1 | Lym | % | 75.4 |
| COc1ccc([C@@H]2Sc3ccccc3N(CCN(C)C)C(=O)[C@@H]2OC(C)=O)cc1 | Lym | % | 77 |
| NS(=O)(=O)c1cc(C(=O)O)c(NCc2ccco2)cc1Cl [FUROSEMIDE] | Lym | % | 80.2 |

# next compound below
Exercise: // lookup Lym for CN(C/C=C/C#CC(C)(C)C)Cc1cccc2ccccc12
Key: 79.6
